system-under-test: T1, cynomolgus monkey OX40 protein (Novoprotein, #CB17) (cynomolgus monkey)
T1 construct: Bought recombinant protein; also called cyno OX40
protocol-description: ELISA, coated cyno OX40 protein
measured-parameter: Maximum OD (OD)
The response must be a number in OD with no trailing unit.

>  <binder>
Pogalizumab analog (PR003475) (antibody, human IgG1, kappa, V domains shown, Conventional IgG antibody; also called Tab) VH: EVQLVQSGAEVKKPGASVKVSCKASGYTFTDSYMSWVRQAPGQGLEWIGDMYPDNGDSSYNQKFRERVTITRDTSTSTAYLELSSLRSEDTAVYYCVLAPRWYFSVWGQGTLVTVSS VL: DIQMTQSPSSLSASVGDRVTITCRASQDISNYLNWYQQKPGKAPKLLIYYTSRLRSGVPSRFSGSGSGTDFTLTISSLQPEDFATYYCQQGHTLPPTFGQGTKVEIKR

>  <Maximum OD, OD>
2.23

$$$$

Look up Maximum OD of PR002068 (antibody, human IgG1, V domains shown, no light chain; also called anti-OX40 HCAb antibody) VH: EVQLLESGGGLVQPGGSLRLSCAASGFSFSSYAMTWVRQAPGKGLEWVSAISGGGGSIFYADSVRGRFTISRDNSKNTLYLQMNSLRAEDTAVYYCANGMTGSTDVDYWGQGTQVTVSS and report it.
2.38
